- Test system: MOLT-4 leukemia
- protocol: NCI-60 one-dose screen, 48 h (100 = growth as untreated, 0 = no growth, -100 = all killed)
- test context: 10 µM unless noted
About 83,000 compounds went through this panel and 20% of them were active in at least one assay; those are over-represented in the sample as a whole.
Reported growth values follow for various compounds
Quick reminder: number only, in %, skip the unit.

- compound: "COc1cc(NN=C(c2ccc(O)cc2)c2ccc(O)cc2)c([N+](=O)[O-])cc1[N+](=O)[O-]"
  measured on: "MOLT-4 leukemia"
  growth, %: 94.6
- compound: "N#C/C(C(=O)c1ccccc1)=C1/C(=O)Nc2ccc(Br)cc21"
  measured on: "MOLT-4 leukemia"
  growth, %: 101
- compound: "CCOc1ccc(/C=C(\\C#N)c2cc3ccccc3[nH]2)cc1"
  measured on: "MOLT-4 leukemia"
  growth, %: 31.2

Kindly note: MOLT-4 leukemia, Cc1cccc(C[C@H](NC(=O)Nc2ccc(Cl)cc2F)C(=O)N[C@@H]2C(=O)N3C[C@H](O)C[C@H]3C(=O)N3CCCC[C@H]3C(=O)N[C@@H](C)C(=O)N3C[C@H](C)C[C@H]3C(=O)O[C@H]2C)c1 , growth value reported: 14.7

Kindly note: MOLT-4 leukemia, O=C(Oc1ccc(Cl)cc1[N+](=O)[O-])Oc1ccc(Cl)cc1[N+](=O)[O-] , growth value reported: 97.8

Kindly note: MOLT-4 leukemia, CC1(C)S[C@@H]2[C@H](NC(=O)[C@H](C(=O)O)c3cccs3)C(=O)N2[C@H]1C(=O)O , growth value reported: 125

Kindly note: MOLT-4 leukemia, Cc1c(Cn2cc(COc3ccc(Br)cc3)nn2)c(C)c(Cn2cc(COc3ccc(Br)cc3)nn2)c(C)c1Cn1cc(COc2ccc(Br)cc2)nn1 , growth value reported: 103

Kindly note: MOLT-4 leukemia, COc1cc(-c2cc(-c3ccc(Nc4ncnc5cc(Cl)ccc45)cc3)nc(N3CCCCC3)n2)cc(OC)c1OC , growth value reported: 90.8
